// data source = PubChem BioAssay (NCATS)

System: Tov112D
Experiment: Primary qHTS to identify gynecologic anti-cancer compounds using libraries of approved drugs and bioactive compounds (AID 1345084); further: nearly all actives have a fitted effect of over 55% in size
Conditions: Gynecologic cancer cell panel viability, ATPlite luminescence, 48 h; series mostly up to 57.5 µM
Records with an inconclusive call do not appear. Calls of active or inactive are those of the source. The call rests on the fitted dose curve; in most records, active means well fitted cell-killing curve with a large enough effect; inconclusive means small, poorly fitted or top-dose-only effect, or effect the other way; inactive means flat fitted curve, though single readings scatter.
Allowed answers: active, inactive

INSERT INTO results (compound, category) VALUES
  ('CC(=O)c1ccc(O[C@@H]2O[C@H](CO)[C@@H](O)[C@H](O)[C@H]2O)cc1', 'inactive');

Request: // return assay outcome for CCOc1ccc2nc(SCCN3CCOCC3)[nH]c2c1
Result: inactive

Request: // return assay outcome for Cc1ccccc1CN1C2=NCCN2C(=O)C2=C1CCN(Cc1ccccc1)C2
Result: inactive

Request: // return assay outcome for C=C1CC[C@H]2[C@@](C)(CCC(O)[C@@]2(C)CO)[C@@H]1CCC1=CCOC1=O (stereo partly drawn)
Result: inactive

Request: // return assay outcome for CNC(=S)NS(=O)(=O)c1cc(CCNC(=O)c2cc(Cl)ccc2OC)ccc1OC
Result: inactive

Request: // return assay outcome for CC1=CC(=O)C2C(C)(C)CCC[C@]2(C)[C@H]1CO (stereo partly drawn)
Result: inactive

Request: // return assay outcome for COc1ccc(C(=O)Nc2ncc(-c3ccc(C(=O)O)cc3)s2)cc1
Result: active

Request: // return assay outcome for COc1ccc(C2COc3cc(O)ccc3C2)c(O)c1 (stereo not drawn)
Result: inactive

Request: // return assay outcome for COc1cccc(C(=O)N2CCN(C(=O)COc3cccc(C)c3)CC2)c1OC
Result: inactive

Request: // return assay outcome for C=C1C(OC(=O)/C(C)=C\C)[C@@]23CCC4[C@@](C)(CCC[C@@]4(C)C(=O)O)C2CC[C@H]1C3OC(C)=O (stereo partly drawn)
Result: inactive

Request: // return assay outcome for C/C1=C\C[C@]2(C)C(=O)C(O)=C([C@H](C)CO)[C@H]2C/C=C(\C)[C@@H](O)CC/C(C)=C/CC1
Result: inactive

Request: // return assay outcome for CC(C)(C)c1ccc(S(=O)(=O)Nc2ccc(Cl)cc2C(=O)c2cc[n+]([O-])cc2)cc1
Result: inactive

Request: // return assay outcome for C=C1CN(Cc2ccc(C(=O)Nc3ccccc3N)cc2)C(=O)c2ccccc21
Result: active

Request: // return assay outcome for Cc1cc(C)c(CNC(=O)c2cc(-c3ccc(CN4CCOCC4)cc3)cc3c2cnn3C2CCCC2)c(=O)[nH]1
Result: inactive

Request: // return assay outcome for COc1ccc2nc(S(=O)(=O)Cc3ncc(C)c(OC)c3C)[nH]c2c1
Result: inactive

Request: // return assay outcome for Cc1cc(N2CCN([C@@H]3CN[C@H](C(=O)N4CCSC4)C3)CC2)n(-c2ccccc2)n1
Result: inactive

Request: // return assay outcome for C=C1C(OC(C)=O)CCC2(C)CC3(OC)OC(=O)C(C)=C3CC12 (stereo not drawn)
Result: inactive

Request: // return assay outcome for CC(C)C(C#N)O[C@@H]1O[C@H](CO[C@@H]2O[C@@H](C)[C@H](O)[C@@H](O)[C@H]2O)[C@@H](O)[C@H](O)[C@H]1O (stereo partly drawn)
Result: inactive

Request: // return assay outcome for CC[C@H](NC(=O)[C@H](CS(=O)(=O)CC1CC1)N[C@@H](c1ccc(F)cc1)C(F)(F)F)C(=O)C(=O)NC1CC1
Result: inactive

Request: // return assay outcome for C=CC1(C)C=C2C(=O)OC(=O)C3=C(CCCC3(C)C)C2(O)CC1 (stereo not drawn)
Result: inactive

Request: // return assay outcome for Cc1ccccc1NC(=O)Nc1ccc(CC(=O)N(C)[C@@H](CC(C)C)C(=O)NCC[C@H](NC(=O)[C@@H]2CCCN2S(=O)(=O)c2cc(Cl)cc(Cl)c2)C(=O)O)cc1
Result: inactive

Request: // return assay outcome for NC1CCCCN(c2c(F)cc3c(=O)c(C(=O)O)cn(C4CC4)c3c2Cl)C1 (stereo not drawn)
Result: inactive

Request: // return assay outcome for CCC(C)C(=O)OC1CC(O)C23C4OCC5(C(O)CC2C1(C)C(O)O4)C3C(=O)CC1(C)C(c2ccoc2)CC2OC215 (stereo not drawn)
Result: active

Request: // return assay outcome for CC(=O)O[C@H]1[C@@H](O)[C@H](O[C@H]2[C@@H]3C=CO[C@@H](O[C@H]4O[C@@H](CO)[C@H](O)[C@@H](O)[C@@H]4O)[C@@H]3[C@@]3(CO)O[C@@H]23)O[C@@H](C)[C@@H]1OC(=O)/C=C/c1ccccc1
Result: inactive

Request: // return assay outcome for CCOc1cc(C(=O)N2CCC(N3CCN(C)CC3)CC2)ccc1Nc1ncc2c(n1)N(C1CCCC1)c1ccccc1C(=O)N2C
Result: inactive

###

System: OV90
Assay: Primary qHTS to identify gynecologic anti-cancer compounds using libraries of approved drugs and bioactive compounds (AID 1345084); further: nearly all actives have a fitted effect of over 55% in size; further: potency means the concentration at half of the fitted maximal effect
Conditions: Gynecologic cancer cell panel viability, ATPlite luminescence, 48 h; series mostly up to 57.5 µM
Results filed as inconclusive are left out. Calls of active or inactive are those of the source. Calls follow the shape of the dose curve; as a rule, active = well fitted cell-killing curve with a large enough effect; inconclusive = small, poorly fitted or top-dose-only effect, or effect the other way; inactive = flat fitted curve, though single readings scatter.
// values below are reported Potency

INSERT INTO measurements (compound, measurementkind, endpointresult) VALUES
  ('Nc1nccn2c(C3CCC(C(=O)O)CC3)nc(-c3cc4cccc(Cl)c4[nH]3)c12 (stereo unspecified)', 'Potency', '10 µM (active)'),
  ('O=C(NCC(O)CO)c1ccncc1Nc1ccc(I)cc1F (stereo unspecified)', 'Potency', '0.0794 µM (active)'),
  ('CC(C)c1nc(-c2ccc(NC(=O)Nc3cccc(C(F)(F)F)c3)c3ccccc23)c2c(N)nccn12', 'Potency', '1.58 µM (active)'),
  ('C/C=C/c1ccc2oc(-c3ccc(O)c(OC)c3)c(C)c2c1', 'Potency', '20 µM (active)'),
  ('COc1ccc(C(=O)Nc2ncc(-c3ccc(C(=O)O)cc3)s2)cc1', 'Potency', '10 µM (active)');

Alright, here's another compound for you.
Request: What does the record list as Potency for C=CC(=O)Nc1cc(Nc2ncc(Cl)c(-c3c[nH]c4ccccc34)n2)c(OC)cc1N(C)CCN(C)C ?
Result: 3.98 µM (active)

###

System: NIH3T3
Experiment: Cytotoxic Profiling of Annotated Libraries Using Quantitative High-Throughput Screening (AID 1296008); further: nearly all actives have a fitted effect of over 60% in size; further: potency means the concentration at half of the fitted maximal effect
Conditions: Five cell lines viability, CellTiter-Glo ATP luminescence, 48-72 h
Protocol: Cell-based phenotypic screening is a commonly used approach to discover biological pathways, novel drug targets, chemical probes and high-quality hit-to-lead molecules. […] A pintool (Kalypsys) was used to transfer 23 nL of compound solution to the 1536-well assay plates. […] Plates were left at room temperature for 10 min before imaging the ATP-coupled luminescence using a ViewLux microplate imager (PerkinElmer, Waltham, MA).
Results filed as inconclusive are left out. Active and inactive are the calls of the source. Calls follow the shape of the dose curve; as a rule, active = well fitted inhibition curve with a large enough effect; inconclusive = small, poorly fitted or top-dose-only effect; inactive = flat fitted curve, though single readings scatter.
measurementKind: Potency

INSERT INTO assay_data (compound, measurementkind, endpointresult) VALUES
  ('CCOC(=O)Nc1cc(-c2ccc(C)c(NS(C)(=O)=O)c2)nn2c(C)nnc12', 'Potency', '9.2 µM (active)'),
  ('Cc1nc([C@](C)(O)CO)sc1-c1cnc(N)c(O[C@H](C)c2cc(F)ccc2-n2nccn2)c1', 'Potency', '2.06 µM (active)'),
  ('NCCCNc1ccc(Nc2nccc(Nc3cc(C4CC4)[nH]n3)n2)cc1', 'Potency', '5.8 µM (active)'),
  ('CC(O)/C=C/C1(O)C(C)C(O[C@@H]2O[C@H](CO)[C@@H](O)[C@H](O)[C@H]2O)C(O)CC1(C)C (stereo partly specified)', 'Potency', 'inactive'),
  ('C[C@@H]1O[C@@H](O[C@H]2[C@H](OC(=O)[C@]34CCC(C)(C)C[C@H]3C3=CCC5[C@@]6(C)C[C@H](O)[C@H](O[C@@H]7O[C@H](CO)[C@@H](O)[C@H](O)[C@H]7O)[C@@](C)(CO)C6[C@H](O)C[C@@]5(C)[C@]3(C)C[C@H]4O)OC[C@H](O)[C@@H]2O)[C@H](O)[C@H](O)[C@H]1O[C@@H]1OC[C@@H](O)[C@H](O[C@H]2OC[C@](O)(CO)[C@H]2O)[C@H]1O (stereo partly specified)', 'Potency', 'inactive');

Alright, here's another compound for you.
Request: Notebook entry, NIH3T3 assay: Potency of CS(=O)(=O)N1CCC(NC(=O)c2[nH]ncc2NC(=O)c2c(Cl)cccc2Cl)CC1 = ?
Result: 2.59 µM (active)

###

System: PA-1
Assay: Primary qHTS to identify gynecologic anti-cancer compounds using libraries of approved drugs and bioactive compounds (AID 1345084); further: nearly all actives have a fitted effect of over 55% in size
Details: Gynecologic cancer cell panel viability, ATPlite luminescence, 48 h; series mostly up to 57.5 µM
Records with an inconclusive call do not appear. The source made the active and inactive calls. Calls follow the shape of the dose curve; as a rule, active = well fitted cell-killing curve with a large enough effect; inconclusive = small, poorly fitted or top-dose-only effect, or effect the other way; inactive = flat fitted curve, though single readings scatter.
Allowed answers: active, inactive

As a guide, the following entries are already answered.
INSERT INTO results (molecule, category) VALUES
  ('NC[C@@](O)(c1ccc(Cl)cc1)c1ccc(-c2cn[nH]c2)cc1', 'active'),
  ('C[C@H]1O[C@@H](O[C@H]2CC[C@@]3(C)C(CC[C@]4(C)C3CC=C3C5CC(C)(C)CC[C@]5(C(=O)O)CC[C@]34C(=O)O)C2(C)C)[C@H](O)[C@@H](O)[C@@H]1O (stereo partly specified)', 'inactive'),
  ('C=C1CCC[C@]2(C)CC[C@@H](C(=C)C(=O)O)[C@H](O)[C@@H]12', 'inactive'),
  ('CC(=O)OC1CC2C3(C)CCC(OC(=O)CC(=O)O)C(C)(C)C3CCC2(C)C2(C)CCC(C3(C)CCC(=O)O3)C12 (stereo unspecified)', 'inactive'),
  ('O=C(CN1C(=O)C2(CCCC2)NCC1c1cc(F)cc(F)c1)Nc1ccc2c(c1)CC1(C2)C(=O)Nc2ncccc21 (stereo unspecified)', 'inactive');

Request: // return assay outcome for COC(=O)c1cc(OC)cc(OC)c1C(=O)c1c(OC)cc2c(c1O)C1CCCC(C)(O2)O1 (stereo unspecified)
Result: inactive

Request: // return assay outcome for CC1CC(O)C2(OC1=O)OC1C(O)C3C4CCC5CC(OC6OC(CO)C(O)C(O)C6OC6OC(C)C(O)C(O)C6O)CCC5(C)C4CCC3(C)C1C2C (stereo unspecified)
Result: inactive

Request: // return assay outcome for Cc1cc(C(=O)N2CCCCc3ccccc32)ccc1CNC(=O)N1CCC[C@H]1C(=O)N(C)C
Result: inactive

Request: // return assay outcome for O=C(c1cc2c(cc1F)OC(c1ccc(F)cc1)(c1ccc(Cl)cc1Cl)O2)N1CCOCC1 (stereo unspecified)
Result: inactive

Request: // return assay outcome for O=C(O)[C@@H]1C[C@H]2C[C@@H](CCc3nn[nH]n3)CC[C@H]2CN1
Result: inactive

Request: // return assay outcome for CC1CCC2(OC1)OC1CC3C4CC=C5CC(O)CC(O[C@@H]6OC[C@@H](O)[C@H](O)[C@H]6O)C5(C)C4CCC3(C)C1(O)C2C (stereo partly specified)
Result: inactive
